- testedSystem: T1, PUF4 RNA-binding domain (Saccharomyces cerevisiae, UniProt P25339 537-888)
- T1 sequence: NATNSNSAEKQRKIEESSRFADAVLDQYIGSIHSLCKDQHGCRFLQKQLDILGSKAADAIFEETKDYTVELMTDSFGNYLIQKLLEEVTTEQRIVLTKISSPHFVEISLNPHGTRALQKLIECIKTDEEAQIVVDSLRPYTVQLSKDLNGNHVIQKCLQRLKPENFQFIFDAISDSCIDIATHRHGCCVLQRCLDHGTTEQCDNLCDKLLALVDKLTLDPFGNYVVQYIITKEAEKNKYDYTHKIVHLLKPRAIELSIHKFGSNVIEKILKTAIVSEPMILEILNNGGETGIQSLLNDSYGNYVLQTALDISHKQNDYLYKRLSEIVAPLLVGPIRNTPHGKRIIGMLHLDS
- measurementProtocol: Mg; RNA-MaP; 20 mM Na-HEPES pH 7.4, 30 mM KOAc, 0.75 mM MgCl2, 0.1% Tween-20, 5% glycerol, 0.1 mg/mL BSA, 2 mM DTT; 25 C; 0.0125-409.6 nM protein
- condition: tags: N-His6-TEV cleaved; C-SNAP kept, Cy3B-labelled; label: tethered on chip by stalled RNA polymerase
propertyMeasured: log10 Kd (log10 of the value in nM)
Values reflect log10 of reported Kd (nM).

# per-item lookup of log10 Kd; items listed below
1. Ie_S2_P3E.2_K3.1_C3.2_[+-1TCTCT]_H3.1_A3.1_F3.1_T3.2 (ssRNA) RNA: UUUGAUUAAUAUGAUAUCGUUCUUUCUCUUCUCUUGUAUAUAUAUUCUUUCUCGAUAUCAUAUUAAUCUUU
2. Ic_S2_P5E.1_K5.1_C5.1_H5.1_A5.1_[T5G]_[A7C]_F5.1_[T8A]_[A10G]_T5.1 (ssRNA) RNA: UUUGAUUAAUAUGAUAUCGUUCUUUCUUGUAGUCAUGUUCUUUCUCGAUAUCAUAUUAAUCUUU
3. UCUCUUCUUGUAUUAUUAGCUCUCUU (ssRNA) [Id_ii_S1_P5E.2_K5.1_C5.2_H5.1_A5.1_F5.1_T5.2_[T11G]_[A12C]]
4. Id_ii_S2_P3E.4_K3.3_C3.2_[C-2A]_[T-1A]_H3.3_A3.1_F3.1_T3.2_[T9A] (ssRNA) RNA: UUUGAUUAAUAUGAUAUCGUUCUUUCUAAACACUAUAAAUUCUUUCUCGAUAUCAUAUUAAUCUUU
5. UCUCUUUCCUCUGUAUUAUUAUCUCUU (ssRNA) [Ie_S1_P5E.1_K5.1_C5.1_H5.1_[+1CCTCT]_A5.1_F5.1_T5.1]
6. UCUCUUAUACACUAUUAAAUCUCUU (ssRNA) [Id_ii_S1_P4E.4_K4.3_C4.2_[C-2A]_H4.3_A4.1_F4.1_T4.2_[G10A]_[T11A]]
7. Ib_S4_P5E.1_K5.1_C5.1_H5.1_[T1C]_[A4T]_A5.1_F5.1_T5.1 (ssRNA) RNA: UUUGACAACUGAUCGUUCUUUCUCGUUUUAUUAUUCUUUCUCGAUCAGUUGUCUUU

## Result
1. 0.02
2. 2.65
3. 0.39
4. 3.31
5. 0.64
6. 1.38
7. 3.02

# per-item lookup of log10 Kd; items listed below
1. UCUCUUUGUAUUUUAUUAUCUCUU (ssRNA) [Ie_S1_P5E.1_K5.1_C5.1_H5.1_[+4TT]_A5.1_F5.1_T5.1]
2. Ic_S2_P5E.1_K5.1_C5.1_H5.1_A5.1_[T5A]_[T6C]_[A7C]_F5.1_[T8C]_[T9A]_[A10T]_T5.1 (ssRNA) RNA: UUUGAUUAAUAUGAUAUCGUUCUUUCUUGUAACCCAUUUCUUUCUCGAUAUCAUAUUAAUCUUU
3. Ib_S2_P3E.1_K3.1_C3.1_H3.1_[T1G]_A3.1_F3.1_[A8T]_T3.1 (ssRNA) RNA: UUUGAUUAAUAUGAUAUCGUUCUUUCUGGUAUAUUUUCUUUCUCGAUAUCAUAUUAAUCUUU
4. UCUCUUUGUACUAUUCUCUCUU (ssRNA) [Ib_S1_P5E.1_K5.1_C5.1_H5.1_A5.1_[T5C]_F5.1_[A10C]_T5.1]
5. Ic_S4_P4E.1_K4.1_C4.1_H4.1_A4.1_[T5C]_[A6C]_F4.1_[T8C]_[A9C]_T4.1 (ssRNA) RNA: UUUGACAACUGAUCGUUCUUUCUUGUACCUCCUUCUUUCUCGAUCAGUUGUCUUU
6. UCUCUUUGUAAUGGCUCUCUU (ssRNA) [Ic_S1_P4E.1_K4.1_C4.1_H4.1_A4.1_[T5A]_[A6T]_[T7G]_F4.1_[T8G]_[A9C]_T4.1]

## Result
0.44
2.77
2.98
1.10
1.96
3.33
